# study target: T1, human GPRC5D (human, UniProt Q9NZD1 1-345)
# T1 construct: whole, on cells; also called hGPRC5D; G-protein coupled receptor family C group 5 member D
# T1 sequence (Q9NZD1 whole entry): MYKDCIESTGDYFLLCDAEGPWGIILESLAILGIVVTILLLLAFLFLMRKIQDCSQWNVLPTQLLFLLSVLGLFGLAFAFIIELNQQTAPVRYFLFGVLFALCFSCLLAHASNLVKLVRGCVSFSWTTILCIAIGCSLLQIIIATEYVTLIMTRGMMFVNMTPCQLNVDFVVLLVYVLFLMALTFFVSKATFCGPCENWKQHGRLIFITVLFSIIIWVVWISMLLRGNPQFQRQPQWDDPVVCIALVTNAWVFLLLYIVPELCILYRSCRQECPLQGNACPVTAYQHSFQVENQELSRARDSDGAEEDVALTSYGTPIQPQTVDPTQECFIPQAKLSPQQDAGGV
# assay method text: FACS, CHOS-hGPRC5D cells
Here, each record is paired with measured Top data.
Lab note: record just the number, no unit beside it.

As a guide, the following entries are already answered.
| binder | Top |
| --- | --- |
| ch28H9C12 (antibody, V domains shown) VH: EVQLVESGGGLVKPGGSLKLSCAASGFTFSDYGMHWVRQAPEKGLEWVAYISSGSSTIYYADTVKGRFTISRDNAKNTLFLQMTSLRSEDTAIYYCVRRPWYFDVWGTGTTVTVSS VL: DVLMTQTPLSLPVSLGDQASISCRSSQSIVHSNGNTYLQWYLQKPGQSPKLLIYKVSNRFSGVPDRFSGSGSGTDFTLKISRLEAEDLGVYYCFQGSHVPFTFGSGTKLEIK | 3960 |
| ch36A3G8 (antibody, V domains shown) VH: QVQLQQSGAELARPGASVKMSCKASGYTFTTYTMHWIKQRPGQDLEWIGFINPSSGYTKYNQNFKDKATLTADKSSTTAYMQLNSLTSEDSAVYYCASPYGNIYFDVWGTGTTVTVSS VL: DIVMTQSQKFMSTAVGDRVSITCKASQNVGTAVAWYQQKPGQSPKLLIYSASNRYTGVPDRFTGSGSGTDFTLTISNMQSEDLADYFCQQYSSYPLTFGAGTKLELK | 2780 |
| ch98A3A8 (antibody, V domains shown) VH: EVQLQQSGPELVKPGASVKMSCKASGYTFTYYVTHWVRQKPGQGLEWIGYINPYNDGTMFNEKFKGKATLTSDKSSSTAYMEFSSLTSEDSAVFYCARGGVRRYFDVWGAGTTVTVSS VL: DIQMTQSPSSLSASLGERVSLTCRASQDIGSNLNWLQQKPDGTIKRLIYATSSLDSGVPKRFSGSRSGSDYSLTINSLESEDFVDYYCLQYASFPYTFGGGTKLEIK | 2970 |

-- ask Which Top value belongs to ch90G6H3 (antibody, V domains shown) VH: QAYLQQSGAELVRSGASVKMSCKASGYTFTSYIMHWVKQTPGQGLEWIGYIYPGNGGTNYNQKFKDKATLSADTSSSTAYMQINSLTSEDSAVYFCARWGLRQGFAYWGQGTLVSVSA VL: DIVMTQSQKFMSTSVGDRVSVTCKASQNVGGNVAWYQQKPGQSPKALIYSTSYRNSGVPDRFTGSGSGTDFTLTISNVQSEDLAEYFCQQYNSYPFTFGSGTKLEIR ?
-- reply 2250

Data credit: patent US20250368734A1
